- TEST SYSTEM: DLL3 (Homo sapiens, UniProt Q9NYJ7)
- MEASUREMENT DESCRIPTION: SPR KD, biotinylated human DLL3 on streptavidin chip (Table 8)
- Set-up: biotin (biotinylated)
- CONDITION LABEL: biotinylated human DLL3 on streptavidin sensor chip, 25° C., 1:1 binding model; read-out: SPR KD
pKd: −log10 of the molar value. Where a SMILES comes first, the peptide text is derived from it. Bridges are numbered along the chain shown (N, C = ends). [ ]: non-standard residue; d: D form. The star is where a group is joined. DOTA = O=C(O)CN1CCN(CC(=O)O)CCN(CC(=O)*)CCN(CC(=O)O)CC1; NMeW = CN[C@@H](Cc1c[nH]c2ccccc12)C(=O)O; Phe(4-F) = N[C@@H](Cc1ccc(F)cc1)C(=O)O; 2Nal = N[C@@H](Cc1ccc2ccccc2c1)C(=O)O; NMeN = CN[C@@H](CC(N)=O)C(=O)O; Tle = CC(C)(C)[C@H](N)C(=O)O
MEASURED PARAMETER: pKd

The cases that follow already have their pKd on record.
CC[C@H](C)[C@H](NC(=O)[C@@H](NC(=O)[C@H](Cc1c[nH]c2ccccc12)NC(C)=O)[C@@H](C)O)C(=O)N[C@H]1CSSC[C@@H](C(=O)N[C@@H](Cc2c[nH]c3ccccc23)C(=O)N2CCC[C@H]2C(N)=O)NC(=O)[C@H](CC(=O)O)NC(=O)[C@H](Cc2c[nH]cn2)NC(=O)[C@H](Cc2ccc(F)cc2)NC(=O)[C@H](CC(N)=O)NC(=O)[C@H](CC(N)=O)NC1=O [compound 49] (Ac-WTICNN[Phe(4-F)]HDCWP-NH2; disulfide 4-10) :: 8.00 to 9.00
CC[C@H](C)[C@H](NC(=O)[C@@H](NC(=O)[C@H](Cc1c[nH]c2ccccc12)NC(C)=O)[C@@H](C)O)C(=O)N[C@H]1CSSC[C@@H](C(=O)N[C@@H](Cc2c[nH]c3ccccc23)C(=O)N2CCC[C@H]2C(=O)O)NC(=O)[C@H](CC(=O)O)NC(=O)[C@H](Cc2c[nH]cn2)NC(=O)[C@H](Cc2c[nH]c3ccccc23)NC(=O)[C@H](CC(=O)O)NC(=O)[C@H](CC(N)=O)N(C)C1=O [compound 384] (Ac-WTIC[NMeN]DWHDCWP-OH; disulfide 4-10) :: 7.00 to 8.00
CC(=O)N[C@@H](Cc1c[nH]c2ccccc12)C(=O)N[C@H](C(=O)N[C@H](C(=O)N[C@H]1CSSC[C@@H](C(=O)N[C@@H](Cc2c[nH]c3ccccc23)C(=O)N2CCC[C@H]2C(N)=O)NC(=O)[C@H](CC(=O)O)NC(=O)[C@H](Cc2cnc[nH]2)NC(=O)[C@H](Cc2c[nH]c3ccccc23)NC(=O)[C@H](CC(N)=O)NC(=O)[C@H](CC(N)=O)NC1=O)C(C)(C)C)[C@@H](C)O [compound 336] (Ac-WT[Tle]CNNWHDCWP-NH2; disulfide 4-10) :: 8.00 to 9.00

Prompt: Sample CC[C@H](C)[C@H](NC(=O)[C@@H](NC(=O)[C@H](Cc1c[nH]c2ccccc12)NC(C)=O)[C@@H](C)O)C(=O)N[C@H]1CSSC[C@@H](C(=O)N[C@@H](Cc2c[nH]c3ccccc23)C(=O)N2CCC[C@H]2C(=O)O)NC(=O)[C@H](CC(=O)O)NC(=O)[C@H](Cc2c[nH]cn2)NC(=O)[C@H](Cc2c[nH]c3ccccc23)N(C)C(=O)[C@H](CC(N)=O)NC(=O)[C@H](CC(N)=O)NC1=O [compound 386] (Ac-WTICNN[NMeW]HDCWP-OH; disulfide 4-10) — what was its pKd?
Response: 6.52 to 7.00

Prompt: Next compound: CC[C@H](C)[C@H](NC(=O)[C@@H](NC(=O)[C@H](Cc1c[nH]c2ccccc12)NC(C)=O)[C@@H](C)O)C(=O)N[C@H]1CSSC[C@@H](C(=O)N[C@@H](Cc2c[nH]c3ccccc23)C(=O)N2CCC[C@H]2C(N)=O)NC(=O)[C@H](CC(=O)O)NC(=O)[C@H](Cc2c[nH]cn2)NC(=O)[C@H](Cc2ccc3ccccc3c2)NC(=O)[C@H](CCCCNC(=O)CN2CCN(CC(=O)O)CCN(CC(=O)O)CCN(CC(=O)O)CC2)NC(=O)[C@H](CC(N)=O)NC1=O [compound 250] (Ac-WTICNK(DOTA)[2Nal]HDCWP-NH2; disulfide 4-10)
Response: 8.00 to 9.00
